method_summary: Inhibition of c-MYC (unknown origin)
# Met = IC50 below 0.8 nM (exclusive); Not met = IC50 at/above 0.8 nM

IN: Decide: IC50 of Cc1nnn(C)c1-c1cc2c(cn1)c1ncc(C(C)(C)O)cc1n2[C@H](c1ccccc1)C1CCOCC1 strictly below 0.8 nM?
OUT: Not met

IN: Decide: IC50 of Cc1nnn(C)c1-c1ccc2c3ncc(C(C)(C)O)cc3n([C@H](c3ccccc3)C3CCOCC3)c2c1 strictly below 0.8 nM?
OUT: Met

IN: Decide: IC50 of Cc1nnn(C)c1-c1ccc2c3ncc(C(C)(C)O)cc3n([C@H](c3ccccc3)C3CCOCC3)c2c1F strictly below 0.8 nM?
OUT: Met

IN: Decide: IC50 of [2H]C([2H])([2H])c1nnn(C)c1-c1cc2c(cc1F)c1ncc(C(C)(C)O)cc1n2[C@H](c1cc(C)on1)C1CCOCC1 strictly below 0.8 nM?
OUT: Not met

IN: Decide: IC50 of [2H]C([2H])([2H])c1nnn(C)c1-c1cc2c(cc1F)c1ncc(C(C)(C)O)cc1n2[C@@H](CCC)c1ncccc1F strictly below 0.8 nM?
OUT: Met

IN: Decide: IC50 of Cc1nnn(C)c1-c1cc(F)c2c3ncc(C(C)(C)O)cc3n([C@H](c3ccccc3)C3CCOCC3)c2c1 strictly below 0.8 nM?
OUT: Not met

###

method_summary: Inhibition of c-MYC (unknown origin)
measure: IC50 (nM)
Quick reminder: number only, in nM, skip the unit.

IN: Report IC50 for Cc1nnn(C)c1-c1cc2c(cc1Cl)c1ncc(C(C)(C)O)cc1n2[C@H](c1ccccc1)C1CCOCC1 [US10683290, Example 77] please.
OUT: 42

IN: Report IC50 for Cc1nnn(C)c1-c1cnc2c3ccc(C(C)(C)O)cc3n([C@H](c3ccccc3)C3CCOCC3)c2c1 [US10112941, Example 54] please.
OUT: 0.7

IN: Report IC50 for [2H]C([2H])([2H])c1nnn(C)c1-c1cc2c(cc1F)c1ncc(C(C)(C)O)cc1n2[C@H](c1ncccc1F)C1CCOCC1 please.
OUT: 1.3
